The measurements presented in this section are drawn from paper PMC3338516.

biological target: HLA-B4002 (Homo sapiens, UniProt P01889, A65T/A93T/A95T/D138N/D201E/D98Y/E176V/E204Q/E69K/K202T/N87E/Q56L/Q94N/R180L/S48T/Y33H/Y91S); test: Competition-based cellular peptide binding assay, HLA-B4002; settings: Table 2; mild-acid-treated B-LCLs, 150 nM fluorescent reference peptide […], overnight 4°C, flow cytometry; mean of two independent experiments
pIC50: −log10 of the molar value. Ends that are not written are not given here.
# reported pIC50; entries follow

entry.sequence: RMATPLLMQALPM [Peptide 3]
pIC50: 5.46
--
entry.sequence: KMRMATPLL
pIC50: 6.36
--
entry.sequence: RMATPLLMQA
pIC50: 5.69
--
entry.sequence: RMATPLLMQAL [RMATPLLMQAL]
pIC50: 6.32

----------
# reported IC50; entries follow
target: HLA-A0201 (Homo sapiens, UniProt P04439, D140Y/D185E/D98H/E176V/E277Q/G131W/G231S/I119V/I121R/I166T/I218V/L300P/L318F/N151K/N90K/P208A/P217A/Q86G/Q94H/R138H/R169H/T345S); construct: endogenous in cells; test: Competition-based cellular peptide binding assay, HLA-A0201; settings: Table 1; mild-acid-treated B-LCLs, 150 nM fluorescent reference peptide […], overnight 4°C, flow cytometry; concentration for half maximal competition; mean of two independent experiments; read-out: HLA-A201 IC50
Ends that are not written are not given here.
readout.type: IC50 (µM)

entry.sequence: LPMGALPQGPM [Peptide 4]
units.of.measure: µM
modifier.sign: >
result.number: 100

entry.sequence: ETIDWKVFESW [Peptide 5]
units.of.measure: µM
modifier.sign: >
result.number: 100

entry.sequence: SRGALYTGFSIL [Peptide 1]
units.of.measure: µM
modifier.sign: =
result.number: 10.9

entry.sequence: RMATPLLMQALPM [Peptide 3]
units.of.measure: µM
modifier.sign: =
result.number: 13.7

entry.sequence: LLAGQATT [Peptide 2]
units.of.measure: µM
modifier.sign: >
result.number: 100

----------
target: HLA-B0702 (Homo sapiens, UniProt P01889); construct: endogenous in cells; experiment: Competition-based cellular peptide binding assay, HLA-B0702; conditions: Table 2; mild-acid-treated B-LCLs, 150 nM fluorescent reference peptide […], overnight 4°C, flow cytometry; mean of two independent experiments
pIC50: −log10 of the molar value. Ends that are not written are not given here.
# reported pIC50; entries follow

entry.sequence: RMATPLLMQA
pIC50: 5.11
--
entry.sequence: RMATPLLMQAL [RMATPLLMQAL]
pIC50: 5.73
--
entry.sequence: KMRMATPLL
pIC50: 6.33
